Assay: NCI Yeast Anticancer Drug Screen. Data for the mec2-1 strain (AID 157)
Details: S. cerevisiae mec2-1 strain, at 50.0 µM, active compounds read high
This is part of a sample that, as a whole, favours compounds with a hit. Of some 79,000 tested, about 15% had one in any assay.
metric: growth inhibition (%)
# number only, unit % dropped from output

## Input Report growth inhibition for CC1=C2CC[C@@]3(C)C(=CCC3O)C2(C)CCC1=O (stereo partly drawn) please.
## Output 11.9

## Input Reported growth inhibition, molecule CCOC(=O)C/C(C)=N\NS(=O)(=O)c1ccc([N+](=O)[O-])cc1 : ____
## Output -16.5

## Input Suppose we examine the molecule CCc1cc2c(cc1COC(C)=O)C(C)(C)CCC2(C)C ; what growth inhibition value has been reported?
## Output -19.4

## Input Using the record for CCOc1ncnc2ccc(Cl)c(I)c12 , report its growth inhibition.
## Output 0.55

## Input For the molecule shown here, CC(=O)NCCSC(=O)CCCCCCCCC(=O)SCCNC(C)=O , give the reported growth inhibition.
## Output -0.25

## Input Item O=C(ON(Cc1ccccc1)Cc1ccccc1)c1ccccc1 has what recorded growth inhibition?
## Output 1.95

## Input Entry under review: O=c1/c(=C\c2ccccc2Cl)sc2n1CCN=2 . Reported growth inhibition?
## Output 5.8

## Input # input molecule: N#CC1=C2CCCC(C#N)=C2CCC1 ; wanted: its growth inhibition
## Output -1

## Input So what's the measured growth inhibition for this one? COc1cc(OC)c(NC2=CC(c3ccc(Cl)cc3)OC2=O)cc1Cl (stereo not drawn)
## Output 1.85

## Input Requested read-out: growth inhibition. Entry: CC1=NN(C(=O)Nc2ccccc2)C(=O)C2CCC(=O)N12 (stereo not drawn)
## Output -4.55

## Input Would you mind telling me what growth inhibition value was observed for N#CC1CCCCC(=O)N1 (stereo not drawn) ?
## Output 2.2

## Input Find the recorded growth inhibition belonging to CCn1c(=O)c2[nH]c(Cl)nc2n(CC(C)Cl)c1=O (stereo not drawn) and report it.
## Output -5

## Input # lookup: growth inhibition of Cn1c(COC(=O)Nc2ccccc2)c(COC(=O)Nc2ccccc2)c2ccc3cc(Cl)c(Cl)cc3c21
## Output 78.8

## Input Name the recorded growth inhibition for CCCOC(=O)c1ccccc1C(=O)OC1CCCCC1 .
## Output -2.05

## Input Quick check: growth inhibition of Cc1oc(C)c2c(N=Nc3ccc([N+](=O)[O-])cc3[N+](=O)[O-])c3ccccc3c(O)c12 ?
## Output 25.1

## Input Which growth inhibition value belongs to Cc1c(-c2ccccc2)c(-c2ccccc2)c(C)c(-c2ccc3c(c2)CCCC3)c1-c1ccccc1 ?
## Output -3.35

## Input Query: growth inhibition; subject: C[N+]1(C)N=C([O-])N(CCCCCCN2C(=O)[N+](C)(C)N=C2[O-])C1=O
## Output -13.1

## Input Which measured growth inhibition value corresponds to COC1CC(NC(=O)C(F)(F)F)C(O)C(CNC(=O)C(F)(F)F)O1 (stereo not drawn) ?
## Output 17.2

## Input What does the data say about its growth inhibition? Entry: COC(=O)C#Cc1cccc(OC)c1OC
## Output 14.9

## Input # lookup: growth inhibition of COc1ccc(-c2c(C#N)c(N)nc(C)c2-c2ccccc2)cc1
## Output -10.8

## Input Form field: reported growth inhibition of CC(c1ccc2ccc3cccc4ccc1c2c34)C(C(=O)O)C(=O)O (stereo not drawn)
## Output -15.8

## Input State the recorded growth inhibition for this entry: CCC(=O)c1c(O)c2ccccc2oc1=O
## Output 9.45

## Input Quick one: growth inhibition of O=C(COc1cc(Cl)c(Cl)cc1Cl)Nc1ccccc1Br ?
## Output -6.9

## Input Which growth inhibition value is on record for O=c1c2c3c(sc2nc2n1N=CN(c1ccc(Cl)cc1)C2)CCCC3 ?
## Output 6

## Input What value of growth inhibition has been reported for the following molecule? C/C(CC(=O)Nc1cc(Cl)c(Cl)cc1Cl)=N\NC(N)=O
## Output 11.7

## Input I'd like to know its growth inhibition. The molecule in question is COc1cccc(CN(CCc2cccc(OC)c2OC)C(=O)CN2CCOCC2)c1O
## Output 9.35

## Input Entry Cc1ccc(C(C)C)cc1O has what growth inhibition?
## Output 9.5

## Input Entry under review: CCOC(=O)CC(C(=O)OCC)c1ccccc1 (stereo not drawn) . Reported growth inhibition?
## Output 10.2

## Input Could you tell me which growth inhibition is on file for CCCCCCCCSC1=NS(=O)(=O)c2ccccc21 ?
## Output 28.6

## Input Looking for the measured growth inhibition of CS(=O)(=O)Nc1ccccc1-c1nc2ccccc2c(=O)o1 , can you help?
## Output 30.7

## Input Which growth inhibition is listed for CCOC(=O)Nc1ccc(F)c(C(F)(F)F)c1 ?
## Output 4.45

## Input Consider the molecule OCCN(CCO)c1ncnc2c1ncn2CCc1ccccc1 and give its measured growth inhibition.
## Output -0.25

## Input Give the measured growth inhibition of CSS(=O)(=O)C(c1ccccc1)c1ccccc1 .
## Output 2.55

## Input So what's the measured growth inhibition for this one? O=[N+]([O-])c1cccc(S(=O)(=O)SSS(=O)(=O)c2cccc([N+](=O)[O-])c2)c1
## Output 18.1

## Input What value of growth inhibition has been reported for the following molecule? O=C(c1ccccc1)n1c2ccccc2c2ccccc21
## Output -3.3

## Input Recorded growth inhibition for COc1cc([C@@H]2C3C(=O)c4ccccc4C3[C@@H](c3cc(OC)c(OC)c(OC)c3)C23Cc2ccccc2C3=O)cc(OC)c1OC (stereo partly drawn) , please?
## Output -0.95

## Input Item N#Cc1nc(CCC(C(=O)O)N2C(=O)c3ccccc3C2=O)oc1N (stereo not drawn) has what recorded growth inhibition?
## Output 15.2

## Input // lookup growth inhibition for CC(C)(C)C1CCC2c3c([nH]c4ccccc34)C3C(=O)N(c4ccc(Cl)cc4)C(=O)C3C2C1 (stereo not drawn)
## Output -20

## Input Which growth inhibition reading was recorded for the molecule Clc1ccc2c(c1)Cc1ccccc1-2 ?
## Output -6.95

## Input Tell me the measured growth inhibition of COCCOC(=O)CO , please.
## Output 3.85

## Input Form field: reported growth inhibition of CC(C)N(CCN1CCCCC1)c1ccccn1
## Output 18.2

## Input So what's the measured growth inhibition for this one? N#Cc1c(-c2ccccc2)c(-c2ccccc2)cc2c(=O)c3ccc(Cl)cc3[nH]c12
## Output 3.25

## Input Look up growth inhibition: ClCC(OCc1ccccc1)OCc1ccccc1
## Output 4.8

## Input Given the entry Cc1cccc(NC(=O)c2cccc(C(=O)Nc3cccc(C)c3C)c2)c1C , report its measured growth inhibition.
## Output 0.6

## Input Could you tell me which growth inhibition is on file for O=C(Nc1cccc2c1C(=O)c1c(NC(=O)c3ccccc3)ccc(Nc3cccc4c3C(=O)c3ccccc3C4=O)c1C2=O)c1ccccc1 ?
## Output -2.65

## Input What does the data say about its growth inhibition? Entry: CCOc1ccc(C=O)cc1OCC
## Output -25.4

## Input Which growth inhibition is reported for this molecule? CCOc1nc(C)cc(C(=O)OC)c1C#N
## Output 15.7

## Input Which growth inhibition is listed for N#Cc1c(N)ncn1C1OC(CO)C(O)C1O (stereo not drawn) ?
## Output -7.6

###

Experiment: NCI Yeast Anticancer Drug Screen. Data for the cln2 rad14 strain (AID 165);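 note: 0% = growth equal to vehicle treated cultures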
Details: S. cerevisiae cln2 rad14 strain, at 50.0 µM, active compounds read high
This is part of a sample that, as a whole, favours compounds with a hit. Of some 79,000 tested, about 15% had one in any assay.
metric: growth inhibition (%)
Note: unit % is implicit; provide only the numeric part.

## Input // query growth inhibition value for entry O=C1Oc2ccccc2C(=O)C1=S1CCCC1
## Output 18.6

## Input Bench note: what growth inhibition did CC(=O)Nc1ncc(Br)s1 show?
## Output -13.8

## Input Form field: reported growth inhibition of O=c1cc(-c2ccccc2Cl)[nH]c2cc3c(cc12)OCO3
## Output -6.95

## Input Need growth inhibition, item CC(=O)Nc1ccc(S(=O)(=O)/C(=C/c2ccc(-c3ccc(Br)cc3)o2)c2ccc([N+](=O)[O-])o2)cc1
## Output 13.7

## Input Which growth inhibition value belongs to [Cl][Pt+2][Cl].[NH-]CC1(C[NH-])CCC1 ?
## Output 9

## Input # lookup: growth inhibition of CCCCCCCCCCCCCCCCCCS
## Output -14.7

## Input Look up growth inhibition for this compound: Cc1cccc(C)c1NC(=O)C(=O)C(C#N)c1ccccc1Cl (stereo not drawn)
## Output -1.1

## Input Reported growth inhibition for CC(C)SC(=O)C[Si](C)(C)C : what is it?
## Output -16.1

## Input What does the data say about its growth inhibition? Entry: O/N=C/c1ccccn1
## Output 6.85

## Input For NC1=NCCN1 , what is its reported growth inhibition?
## Output -1.85

## Input Reported growth inhibition for CC(C)(CC(O)C#N)/[N+]([O-])=[N+](\[O-])C(C)(C)CC(O)C#N (stereo not drawn) : what is it?
## Output -4.15

## Input May I ask what growth inhibition has been recorded for CC(C)=CC1CCc2ccccc2N1S(=O)(=O)c1ccc(C)cc1 (stereo not drawn) ?
## Output -8.7

## Input Give its growth inhibition value. Item: COc1cc2c(c3oc(=O)cc(CCC(=O)O)c13)C1CC(=O)OC1O2 (stereo not drawn)
## Output 1
